- System: SNB-75 CNS
- assay name: NCI-60 one-dose screen, 48 h (100 = growth as untreated, 0 = no growth, -100 = all killed)
- assay context: 10 µM unless noted
The panel holds about 83,000 compounds, 20% with a hit somewhere; the sample as a whole holds those more often.
value kind: growth (%)
// return numeric value only (unit: %, not printed)

Reported growth ( `Cc1cc2c3ccccc3ccc2[n+]2ccccc12` ) = 14.6

For CC(O)CN1CC(O)=C(c2nc3ccccc3s2)C1=N (centres undefined) the compound record lists growth as 99.3

Recorded result, `CCOC(=O)c1sc2nc(-c3cccc(O)c3)nc(N3CCOCC3)c2c1C` , growth: 21.1

Field growth (entry `O=C(/C=C/c1cccc(Cl)c1)c1ccc(O)c(CN2CCN(c3cc4c(cc3F)c(=O)c(C(=O)O)cn4C3CC3)CC2)c1` ) reads 28.7

GET /value?item= `CCCCn1c(-c2ccc(C(=O)O/N=C(\N)c3ccc4ccccc4c3)cc2)nc(-c2ccccc2)c1-c1ccccc1` &field=growth returns 23.3

get_value(item= `O=C(CN(C(=O)Cn1c(=O)n2nnnc2c2ccccc21)c1ccccc1C(F)(F)F)Nc1ccc(C(F)(F)F)cc1` , readout=growth) returns 91

growth reading for `COc1ccc(-c2nc3ccc(-c4nc5ccc(N6CCN(c7ccncc7)CC6)cc5[nH]4)cc3[nH]2)cc1OC` : 52.8

// growth lookup, compound = `CCN(CC)S(=O)(=O)c1ccc(OC)c(NC(=O)c2[nH]c(C)c3c2CCCCC3=O)c1` , result: 9.16

growth measured on `CCN1CCN(c2nc(NCCNc3ccnc4cc(Cl)ccc34)c3ccccc3n2)CC1` = 44.7
